# system name: JNK2 (Homo sapiens)
# Sequence (P45984 whole entry): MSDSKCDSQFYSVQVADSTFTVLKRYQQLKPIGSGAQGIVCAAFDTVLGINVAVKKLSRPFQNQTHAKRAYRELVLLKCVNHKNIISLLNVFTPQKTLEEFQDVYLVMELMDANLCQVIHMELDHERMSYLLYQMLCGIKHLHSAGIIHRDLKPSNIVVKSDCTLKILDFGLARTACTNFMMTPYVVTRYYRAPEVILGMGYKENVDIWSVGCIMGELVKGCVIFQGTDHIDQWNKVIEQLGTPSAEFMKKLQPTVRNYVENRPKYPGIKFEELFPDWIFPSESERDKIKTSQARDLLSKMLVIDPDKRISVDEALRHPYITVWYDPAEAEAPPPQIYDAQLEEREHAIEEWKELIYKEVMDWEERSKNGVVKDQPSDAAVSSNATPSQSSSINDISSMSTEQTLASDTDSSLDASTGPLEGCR
# protocol description: Promega NanoBRET intracellular target engagement (tracer K10 displacement), JNK2
readout kind: IC50

compound | data value
O=C(Nc1ccc(O)c(C(=O)N2CCCCC2)c1)c1cc2c(-c3cnc4[nH]ccc4c3)cccc2s1 [CDD-2634] | 161 nM
Cc1ccc(NC(=O)c2ccn3ncc(-c4cncc5ccccc45)c3c2)cc1 [CDD-2325] | 890 nM
CNC(=O)CN1[C@H](CCNC(=O)OCc2ccccc2)CN(Cc2cccc3ccnn23)C[C@H]1CC(=O)NCCCN(C)c1ccc(F)cc1 [CDD-1723] | 32000 nM
CNC(=O)c1ccc(NC(=O)c2ccn3ncc(-c4cnc5[nH]ccc5c4)c3c2)cc1 [CDD-2461] | 5300 nM
CN(C)C(=O)c1cc(NC(=O)c2cc3c(-c4cnc5[nH]ccc5c4)cccc3s2)ccn1 [CDD-3012] | 3600 nM
CN(C)C(=O)c1cc(NC(=O)c2cc3c(-c4cnc5[nH]ccc5c4)cccc3s2)ccc1O [CDD-2728] | 570 nM
CNCc1ccc(NC(=O)c2ccn3ncc(-c4cnc5[nH]ccc5c4)c3c2)cc1 [CDD-2346] | 1700 nM

Measured values drawn from patent US20260294922A1 for this set.
